Where these numbers come from: patent US20230201217A1

Hi there, I'd appreciate the recorded AUC(0-inf) for every entry that follows.
measurement_protocol: Phase 1 first-in-human study, pharmacokinetics in plasma
condition_details: both, human, plasma, po, 4 mg
Supply the numeric figure in ng·h/mL, leaving out any unit text.

Suppose we examine the molecule COCCC1CC2CN3C=Cc4c([nH]c5ccccc45)C(C(=O)OC)(C2)C13 (stereo not drawn) [M4] ; what AUC(0-inf) value has been reported?
1650

Recorded AUC(0-inf) for COC(=O)C12CC3CC(CC(=O)O)C1N(CCc1c2[nH]c2ccccc12)C3 (stereo not drawn) [M5] , please?
185

So what's the measured AUC(0-inf) for this one? COC(=O)C12CC3CC(CCO)C1N(C=Cc1c2[nH]c2ccccc12)C3 (stereo not drawn) [M2]
420
